# System: Yap1 mRNA
# method notes: Dose-dependent inhibition of human Yap1 in A-431 cells (Example 8, 10,000 cells per well, RTS4814)
# Assay type: cell-based
# assay context: 125.0 nM; A-431 cells
Strand notation (5' to 3'): a small letter for the sugar, then the base; units joined by * are phosphorothioate-linked, units joined directly phosphodiester-linked; [ ] holds rarer units or linkages, { } end groups; capitals alone tell only the bases. k = constrained ethyl (cEt); [5mC] = 5-methylcytosine; d = 2'-deoxy (DNA)
Please note: Condition met applies when % UTC (Yap1 mRNA) is 20 % UTC or greater, and Condition not met applies otherwise.

- substance: "1075797 (kG*kA*kT*dA*dA*dT*d[5mC]*dA*dT*dG*dA*dT*dA*k[5mC]*kT*k[5mC]; antisense) [compound 1075797]"
  classification: "Condition not met"
- substance: "1076084 (k[5mC]*kA*kT*d[5mC]*dA*dA*dT*dA*dG*dA*dG*dA*dG*kT*k[5mC]*kG; antisense) [compound 1076084]"
  classification: "Condition met"
- substance: "1076023 (kA*kT*kA*dA*dT*dT*dA*dG*dA*dT*dG*d[5mC]*dT*kG*kA*k[5mC]; antisense) [compound 1076023]"
  classification: "Condition not met"
- substance: "1074676 (antisense k[5mC]*kA*kA*dA*dT*dT*dA*dT*dA*dG*dG*d[5mC]*dA*k[5mC]*kT*k[5mC]) [compound 1074676]"
  classification: "Condition not met"

###

# Tested on: Yap1 mRNA
# method notes: Dose-dependent inhibition of human Yap1 in SNU-449 cells (Example 9, RTS36584)
# Format: cell-based
# assay context: 500.0 nM, free uptake, approximately 48 hours
Strand notation (5' to 3'): a small letter for the sugar, then the base; units joined by * are phosphorothioate-linked, units joined directly phosphodiester-linked; [ ] holds rarer units or linkages, { } end groups; capitals alone tell only the bases. e = 2'-O-(2-methoxyethyl) (MOE); k = constrained ethyl (cEt); [5mC] = 5-methylcytosine; d = 2'-deoxy (DNA); m = 2'-O-methyl
Listed here: items and their measured % UTC (Yap1 mRNA).

- substance: "1198294 (kA*kG*kA*dG*dT*dA*dT*dG*dT*dG*dG*d[5mC]*kA*eA*kT*eA; antisense) [compound 1198294]"
  % UTC (Yap1 mRNA), % UTC: 14
- substance: "1198499 (kT*kT*dT*dA*dG*dG*dA*dT*dG*d[5mC]*dA*eT*kG*eG*kT*eT) [compound 1198499]"
  % UTC (Yap1 mRNA), % UTC: 30
- substance: "1198612 (kA*kA*kG*dT*dG*dT*dA*dT*dG*dT*d[5mC]*dA*kG*kA*kA*eG) [compound 1198612]"
  % UTC (Yap1 mRNA), % UTC: 2
- substance: "1197236 (kT*kA*kT*dT*mA*dG*dA*dG*dT*dA*dT*dG*dT*kG*kG*k[5mC]; antisense) [compound 1197236]"
  % UTC (Yap1 mRNA), % UTC: 25
- substance: "1009326 (kT*kA*kT*dT*dA*dG*dA*dG*dT*dA*dT*dG*dT*kG*kG*k[5mC]; antisense) [compound 1009326]"
  % UTC (Yap1 mRNA), % UTC: 14
- substance: "1198365 (k[5mC]*kT*kA*dA*dG*dT*dA*dA*dG*dG*dT*dT*kT*e[5mC]*k[5mC]*e[5mC]; antisense) [compound 1198365]"
  % UTC (Yap1 mRNA), % UTC: 15
- substance: "1198457 (kA*kT*dT*dG*dT*d[5mC]*dT*d[5mC]*dA*dT*dG*e[5mC]*k[5mC]*eT*kT*eA; antisense) [compound 1198457]"
  % UTC (Yap1 mRNA), % UTC: 31

###

# Tested on: Yap1 mRNA
# method notes: Dose-dependent inhibition of human Yap1 in SNU-449 cells (Example 9, RTS36584)
# Assay type: cell-based
# assay context: 125.0 nM, free uptake, approximately 48 hours
Strand notation (5' to 3'): a small letter for the sugar, then the base; units joined by * are phosphorothioate-linked, units joined directly phosphodiester-linked; [ ] holds rarer units or linkages, { } end groups; capitals alone tell only the bases. e = 2'-O-(2-methoxyethyl) (MOE); k = constrained ethyl (cEt); [5mC] = 5-methylcytosine; d = 2'-deoxy (DNA); m = 2'-O-methyl
Please note: y applies when % UTC (Yap1 mRNA) is 40 % UTC or greater, and n applies otherwise.

- substance: "1198961 (kA*kA*dA*dG*dT*dG*dT*dA*dT*dG*dT*k[5mC]*dA*kG*dA*kA; antisense) [compound 1198961]"
  system tested: "Yap1 mRNA"
  classification: "n"
- substance: "1198353 (kA*kG*kT*dG*dT*dA*dT*dG*dT*d[5mC]*dA*dG*kA*eA*kG*eA; antisense) [compound 1198353]"
  system tested: "Yap1 mRNA"
  classification: "n"
- substance: "1198875 (kA*kA*dA*dG*dT*dG*dT*dA*dT*dG*dT*k[5mC]*eA*kG*eA*kA; antisense) [compound 1198875]"
  system tested: "Yap1 mRNA"
  classification: "n"
- substance: "1200861 (kT*kT*kA*dA*dA*mG*dT*dG*dT*dA*dT*dG*dT*k[5mC]*kA*kG; antisense) [compound 1200861]"
  system tested: "Yap1 mRNA"
  classification: "y"
- substance: "1198494 (kG*kT*dG*d[5mC]*dT*dT*dT*dG*dG*dA*dA*eG*kA*eT*k[5mC]*eT; antisense) [compound 1198494]"
  system tested: "Yap1 mRNA"
  classification: "n"
- substance: "1200798 (kT*kA*kT*dT*dA*mG*dA*dG*dT*dA*dT*dG*dT*kG*kG*k[5mC]; antisense) [compound 1200798]"
  system tested: "Yap1 mRNA"
  classification: "y"
- substance: "1198267 (kA*kG*dT*dG*dT*dA*dT*dG*dT*d[5mC]*dA*eG*eA*eA*kG*kA; antisense) [compound 1198267]"
  system tested: "Yap1 mRNA"
  classification: "y"

###

# Test system: Yap1 mRNA
# method notes: Dose-dependent inhibition of human Yap1 in A-431 cells (Example 8, 10,000 cells per well, RTS4814)
# Format: cell-based
# assay context: A-431 cells, free uptake, approximately 48 hours, RTS4814; linear regression on log/linear plot
Strand notation (5' to 3'): a small letter for the sugar, then the base; units joined by * are phosphorothioate-linked, units joined directly phosphodiester-linked; [ ] holds rarer units or linkages, { } end groups; capitals alone tell only the bases. k = constrained ethyl (cEt); [5mC] = 5-methylcytosine; d = 2'-deoxy (DNA)
measurement name: IC50 (nM)

- substance: "1075146 (kG*kT*kA*dT*dT*dA*dA*dG*dG*dG*dA*dT*dT*kT*kT*k[5mC]; antisense) [compound 1075146]"
  comparison operator: "="
  test value: 100
- substance: "1074413 (kA*k[5mC]*kT*dG*dT*dG*dA*dA*dA*dG*dA*dG*dG*kT*k[5mC]*kA; antisense) [compound 1074413]"
  comparison operator: "<"
  test value: 20
- substance: "1074484 (kT*k[5mC]*kA*d[5mC]*dT*dA*dA*dT*dA*dT*dG*dG*dT*k[5mC]*kA*kT; antisense) [compound 1074484]"
  comparison operator: "<"
  test value: 20
- substance: "1074251 (antisense kT*k[5mC]*kT*dG*dA*dT*d[5mC]*dG*dA*dT*dG*dT*dG*kA*kT*kT) [compound 1074251]"
  comparison operator: "="
  test value: 100
- substance: "1074245 (antisense kA*kG*kA*dA*dG*dT*dA*dT*d[5mC]*dT*d[5mC]*dT*dG*kA*k[5mC]*k[5mC]) [compound 1074245]"
  comparison operator: "<"
  test value: 20
- substance: "1076489 (k[5mC]*kA*kA*dA*dA*dT*dA*dG*dG*dT*dG*dA*dG*kT*k[5mC]*kA; antisense) [compound 1076489]"
  comparison operator: "<"
  test value: 20
- substance: "1074221 (antisense kG*kA*kA*dT*dG*dA*dG*d[5mC]*dT*d[5mC]*dG*dA*dA*k[5mC]*kA*kT) [compound 1074221]"
  comparison operator: "="
  test value: 100
- substance: "1074794 (k[5mC]*kA*kA*dA*dT*d[5mC]*dA*dA*dT*dG*dT*dG*d[5mC]*kT*k[5mC]*k[5mC]; antisense) [compound 1074794]"
  comparison operator: "<"
  test value: 20
- substance: "1074409 (kG*kG*kA*dT*dT*dA*dA*dA*dG*dT*dA*dT*d[5mC]*kT*kT*kG; antisense) [compound 1074409]"
  comparison operator: "="
  test value: 40
- substance: "1075855 (antisense kG*kA*kT*dT*dT*dT*dT*dA*dG*dG*d[5mC]*dA*dG*kA*k[5mC]*kG) [compound 1075855]"
  comparison operator: "="
  test value: 100
- substance: "1076143 (kG*kA*kT*dA*d[5mC]*dG*dA*dA*dA*dA*dA*dA*dG*k[5mC]*k[5mC]*kA; antisense) [compound 1076143]"
  comparison operator: "="
  test value: 100
- substance: "1076017 (k[5mC]*kT*kA*dA*dT*dA*dG*dG*dA*dT*dG*dG*dA*kT*kT*k[5mC]; antisense) [compound 1076017]"
  comparison operator: "="
  test value: 30
- substance: "1074626 (DNA k[5mC]*kT*kG*dT*dT*dA*dT*dG*dA*dA*d[5mC]*d[5mC]*d[5mC]*kT*kT*kG) [compound 1074626]"
  comparison operator: "<"
  test value: 20
- substance: "1076256 (kT*kT*kA*dT*dT*dT*dA*dG*dG*d[5mC]*d[5mC]*d[5mC]*d[5mC]*kA*kT*kA; antisense) [compound 1076256]"
  comparison operator: "="
  test value: 100
- substance: "1074792 (kA*kT*k[5mC]*dA*dA*dT*dG*dT*dG*d[5mC]*dT*d[5mC]*d[5mC]*kA*kT*k[5mC]; antisense) [compound 1074792]"
  comparison operator: "<"
  test value: 20
- substance: "1075813 (kA*k[5mC]*kT*dA*dA*dT*dA*dT*dG*d[5mC]*dA*dA*d[5mC]*kT*k[5mC]*kT; antisense) [compound 1075813]"
  comparison operator: "="
  test value: 40
- substance: "1076174 (kG*kA*kT*dA*dT*dA*dT*dG*dG*dT*dA*dG*d[5mC]*kA*kT*kA; antisense) [compound 1076174]"
  comparison operator: "<"
  test value: 20
- substance: "1076483 (kA*k[5mC]*kG*dG*dG*dA*dA*dA*dT*d[5mC]*dA*dT*dA*kT*kA*kG; antisense) [compound 1076483]"
  comparison operator: "="
  test value: 40
- substance: "1075842 (kG*kT*kA*dT*dT*dT*dA*dG*dG*dT*dA*d[5mC]*dT*k[5mC]*kA*kG; antisense) [compound 1075842]"
  comparison operator: "<"
  test value: 20
- substance: "1074563 (DNA kT*kG*kA*dA*dT*dT*d[5mC]*d[5mC]*dA*dA*dT*d[5mC]*dG*kA*kG*kA; antisense) [compound 1074563]"
  comparison operator: "="
  test value: 100
- substance: "1074250 (antisense k[5mC]*kT*kG*dA*dT*d[5mC]*dG*dA*dT*dG*dT*dG*dA*kT*kT*kT) [compound 1074250]"
  comparison operator: "="
  test value: 100
- substance: "1075395 (antisense kA*kT*kG*dA*dA*dT*dA*dA*dG*dT*dA*dT*dG*k[5mC]*k[5mC]*kA) [compound 1075395]"
  comparison operator: "<"
  test value: 20
- substance: "1076460 (kT*kA*kA*dT*dA*dT*dA*dG*d[5mC]*d[5mC]*d[5mC]*d[5mC]*dT*kT*k[5mC]*kA; antisense) [compound 1076460]"
  comparison operator: "="
  test value: 200
- substance: "1075242 (k[5mC]*kA*kG*dG*dG*dA*dT*dA*dA*dT*dT*dA*d[5mC]*kT*kA*kA; antisense) [compound 1075242]"
  comparison operator: "="
  test value: 100
- substance: "1074629 (DNA kG*kA*kG*dA*dT*dT*dT*dT*dA*dT*dG*d[5mC]*d[5mC]*kT*kG*kT; antisense) [compound 1074629]"
  comparison operator: "<"
  test value: 20
